Target: Hfq (Escherichia coli, UniProt P0A6X3 1-102)
Sequence (P0A6X3 whole entry): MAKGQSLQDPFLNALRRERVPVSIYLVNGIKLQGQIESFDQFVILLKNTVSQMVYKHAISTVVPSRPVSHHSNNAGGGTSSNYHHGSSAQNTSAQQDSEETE
Test: fluorescence anisotropy; Anisotropy: buffer not given in material (as Geinguenaud 2011); pH ~5 stated for DNA complex formation; microscopy: Hfq stock in 50 mM Tris-HCl pH 7.5, 50 mM NH4Cl, 10% glycerol, 1 mM EDTA, exchanged to TE (10 mM Tris-HCl pH 8, 1 mM EDTA); TEM: 10 mM Tris-HCl, 1 mM EDTA, room temperature, 10 min
Details: protein: recombinant; chain copies: 6; label: 5'-fluorescein
ATTRIBUTE_MEASURED: Kd (nM)
Just the number in nM, nothing appended.

Example entries begin here.
AAAAAAAAAAAAAAAAAAAA (ssDNA) [dA20]	183
dA59 (ssDNA) DNA: AAAAAAAAAAAAAAAAAAAAAAAAAAAAAAAAAAAAAAAAAAAAAAAAAAAAAAAAAAA	166

API: the following record is the query input.
Q. // returns reported Kd for input AAAAAAA (ssDNA) [dA7]
A. 3500
